- protocol.description: NCI Yeast Anticancer Drug Screen. Data for the mec2-1 strain (AID 157)
- experimental.setup: S. cerevisiae mec2-1 strain, at 50.0 µM, stronger effect = higher value
The panel holds about 79,000 compounds, 15% with a hit somewhere; the sample as a whole holds those more often.
endpoint: growth inhibition (%)
Give bare numbers, in %.

- COc1cccc(C2c3cc4c(cc3OC(C)(N3CCCC3)C2C)OCO4)c1OC (centres undefined): -4.7
- CCCC(O)(c1ccccc1)c1ccccc1: 2.95
- ClC1(Cl)CC1c1ccccc1 (centres undefined): 11.9
- NC1CCCCCC1: -7.25
- Cc1c(-c2ccccc2)c2ccccc2n1C: 8.55
- C1CCC(C2CCC(C3CCCCC3)CC2)CC1 (centres undefined): -8.75

Provide reported growth inhibition for each item, in the same order as listed.
1. CC(C)OP(=O)(OC(C)C)/C(F)=N/Nc1ccc([N+](=O)[O-])cc1
2. CC(C(=O)O)/C(=C\c1ccc2c(c1)OCO2)C(=O)O (centres undefined)
3. COc1cc([N+](=O)[O-])cc(C=O)c1O
4. CC1(C)OC2(C)CCC1C1C2N1C(=O)Nc1cccc2ccccc12 (centres undefined)
5. COC(=O)/C(=N\NC(C)(C)C)C(C(=O)C(=O)Nc1cc(C)ccc1C)c1nc2ccccc2[nH]c1=O (centres undefined)

// result
11.3
11.3
28.4
-9.5
-6.9
